pIC50: −log10 of the molar value.
Reported pIC50, JAK1 (Homo sapiens (Human)).
Property label: pIC50

{"columns": ["Compound", "Value"],
 "data": [
  ["CCC(CC)Cn1ccc2cnc(Nc3cnn(C4CCOC4=O)c3)nc21 (stereo not drawn)", "> 7.00"],
  ["CCOC(=O)C(C)n1cc(Nc2ncc3ccn(CC(CC)CC)c3n2)cn1 (stereo not drawn)", "> 7.00"],
  ["CCOC(=O)Cn1cc(Nc2ncc3ccn(CC(CC)CO)c3n2)cn1 (stereo not drawn)", "> 7.00"],
  ["O=C(O)Cn1cc(Nc2ncc3ccn(Cc4ccsc4)c3n2)cn1", "6.00 to 7.00"],
  ["O=C(O)CCn1cc(Nc2ncc3ccn(Cc4ccsc4)c3n2)cn1", "> 7.00"],
  ["CCC(CC)Cn1ccc2cnc(Nc3cnn(CC(=O)OC(C)C)c3)nc21", "> 7.00"],
  ["CCOC(=O)C(C)n1cc(Nc2ncc3ccn(C[C@@H](CC)C(C)C)c3n2)cn1 (stereo partly drawn)", "> 7.00"],
  ["CCC(Cn1ccc2cnc(Nc3cnn(CC(=O)OCC(C)C)c3)nc21)C(C)C (stereo not drawn)", "> 7.00"],
  ["CC[C@H](Cn1ccc2cnc(Nc3cnn(C(CC(C)(C)O)C(=O)O)c3)nc21)C(C)C (stereo partly drawn)", "> 7.00"],
  ["CCC(Cn1ccc2cnc(Nc3cnn(CC(=O)OCCO)c3)nc21)C(C)C (stereo not drawn)", "> 7.00"],
  ["C=CC[C@H](Cn1ccc2cnc(Nc3cnn(CC(=O)OC(C)C)c3)nc21)C(C)C", "> 7.00"],
  ["CCOC(=O)Cn1cc(Nc2ncc3ccn(CC4CCSCC4)c3n2)cn1", "6.00 to 7.00"]
]}

---

Measurement target: JAK2 (Homo sapiens (Human), UniProt O60674)
Sequence (O60674 whole entry, species assumed): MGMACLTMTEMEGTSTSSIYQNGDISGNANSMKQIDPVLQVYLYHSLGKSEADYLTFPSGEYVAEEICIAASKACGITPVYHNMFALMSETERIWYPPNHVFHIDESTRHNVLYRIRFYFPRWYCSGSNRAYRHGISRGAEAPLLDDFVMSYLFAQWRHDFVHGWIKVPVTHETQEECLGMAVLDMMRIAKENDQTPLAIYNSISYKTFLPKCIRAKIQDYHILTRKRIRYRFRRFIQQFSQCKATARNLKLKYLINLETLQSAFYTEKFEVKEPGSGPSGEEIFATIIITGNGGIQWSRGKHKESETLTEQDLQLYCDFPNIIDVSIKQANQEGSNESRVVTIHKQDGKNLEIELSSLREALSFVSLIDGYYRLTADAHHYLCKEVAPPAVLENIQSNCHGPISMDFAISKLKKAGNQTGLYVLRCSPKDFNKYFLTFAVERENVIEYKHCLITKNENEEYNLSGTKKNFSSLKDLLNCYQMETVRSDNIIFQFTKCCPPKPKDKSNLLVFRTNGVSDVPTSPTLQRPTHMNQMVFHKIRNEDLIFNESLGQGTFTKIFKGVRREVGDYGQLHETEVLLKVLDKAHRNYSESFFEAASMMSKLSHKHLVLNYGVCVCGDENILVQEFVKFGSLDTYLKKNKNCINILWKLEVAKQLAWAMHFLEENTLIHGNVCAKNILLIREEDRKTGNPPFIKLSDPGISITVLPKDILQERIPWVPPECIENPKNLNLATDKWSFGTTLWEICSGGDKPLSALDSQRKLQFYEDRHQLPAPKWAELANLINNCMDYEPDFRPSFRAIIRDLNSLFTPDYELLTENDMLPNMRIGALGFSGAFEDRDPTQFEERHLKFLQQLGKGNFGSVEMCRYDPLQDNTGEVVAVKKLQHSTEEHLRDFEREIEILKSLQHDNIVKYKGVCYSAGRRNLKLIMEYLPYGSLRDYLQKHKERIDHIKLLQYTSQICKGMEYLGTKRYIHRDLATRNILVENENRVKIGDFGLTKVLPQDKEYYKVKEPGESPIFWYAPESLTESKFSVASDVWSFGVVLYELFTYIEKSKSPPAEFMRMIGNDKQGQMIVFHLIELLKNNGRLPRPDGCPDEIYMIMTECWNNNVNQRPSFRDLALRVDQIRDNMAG

{"columns": ["Molecule", "IC50"],
 "data": [
  ["CCOC(=O)Cn1cc(Nc2ncc3ccn(CC4CC5CCC4C5)c3n2)cn1 (stereo not shown) [Compound 40]", "< 100 nM"],
  ["CCC(C)OC(=O)Cn1cc(Nc2ncc3ccn(CC(CC)C(C)C)c3n2)cn1 (stereo not shown) [Compound 107]", "< 100 nM"],
  ["CCOC(=O)C(C)n1cc(Nc2ncc3ccn(CC(CC)CC)c3n2)cn1 (stereo not shown) [Compound 28]", "< 100 nM"],
  ["CC(C)OC(=O)Cn1cc(Nc2ncc3ccn(C[C@@H](CCN(C)C)C(C)C)c3n2)cn1 [Compound 96]", "100 to 1000 nM"]
]}

---

Target or system JAK1 (Homo sapiens (Human), UniProt P23458); recorded quantity IC50.

{"columns": ["Compound", "IC50"],
 "data": [
  ["CCOC(=O)Cn1cc(Nc2ncc3ccn(C[C@H](CC)C(C)C)c3n2)cn1", "< 100 nM"],
  ["CC[C@H](Cn1ccc2cnc(Nc3cnn(CCC(=O)O)c3)nc21)C(C)C", "< 100 nM"],
  ["CCOC(=O)Cn1cc(Nc2ncc3ccn(CC(CC)CC)c3n2)cn1", "< 100 nM"],
  ["CCOC(=O)Cn1cc(Nc2ncc3ccn(C[C@H]4CC[C@H](NC)CC4)c3n2)cn1", "100 to 1000 nM"],
  ["CCOC(=O)Cn1cc(Nc2ncc3ccn(CC(CC)CC#N)c3n2)cn1 (centres unmarked)", "< 100 nM"],
  ["CC[C@H](Cn1ccc2cnc(Nc3cnn([C@H]4CCOC4=O)c3)nc21)C(C)C [Compound 82B]", "< 100 nM"],
  ["CCOC(=O)Cn1cc(Nc2ncc3ccn(C[C@@H](CC)C(C)C)c3n2)cn1", "< 100 nM"],
  ["CCOC(=O)Cn1cc(Nc2ncc3ccn(CCC4CCCCC4)c3n2)cn1", "> 10000 nM"]
]}

---

Reported pIC50 values for a set of compounds
Measurement target: UniProt:P23458
pIC50: −log10 of the molar value.

{"columns": ["Compound", "pIC50"],
 "data": [
  ["CC(C)OC(=O)Cn1cc(Nc2ncc3ccn(C[C@@H](CCCl)C(C)C)c3n2)cn1", "> 7.00"],
  ["CC(C)OC(=O)Cn1cc(Nc2ncc3ccn(C[C@@H](CCO)C(C)C)c3n2)cn1", "> 7.00"],
  ["CCOC(=O)Cn1cc(Nc2ncc3ccn(CC4CCC(C)CC4)c3n2)cn1 (centres unmarked)", "> 7.00"],
  ["CCOC(=O)CCn1cc(Nc2ncc3ccn(C[C@@H](CC)C(C)C)c3n2)cn1", "> 7.00"],
  ["CCOC(=O)Cn1cc(Nc2ncc3ccn(Cc4ccsc4)c3n2)cn1", "> 7.00"],
  ["CCCCOC(=O)Cn1cc(Nc2ncc3ccn(CC(CC)C(C)C)c3n2)cn1 (centres unmarked)", "> 7.00"],
  ["CC(C)OC(=O)Cn1cc(Nc2ncc3ccn(C[C@@H](CCF)C(C)C)c3n2)cn1", "> 7.00"],
  ["CC[C@H](Cn1ccc2cnc(Nc3cnn([C@@H]4CCOC4=O)c3)nc21)C(C)C [Compound 82A]", "> 7.00"]
]}

---

Measurement target: JAK1 (Homo sapiens (Human))
Sequence (P23458 whole entry, species assumed): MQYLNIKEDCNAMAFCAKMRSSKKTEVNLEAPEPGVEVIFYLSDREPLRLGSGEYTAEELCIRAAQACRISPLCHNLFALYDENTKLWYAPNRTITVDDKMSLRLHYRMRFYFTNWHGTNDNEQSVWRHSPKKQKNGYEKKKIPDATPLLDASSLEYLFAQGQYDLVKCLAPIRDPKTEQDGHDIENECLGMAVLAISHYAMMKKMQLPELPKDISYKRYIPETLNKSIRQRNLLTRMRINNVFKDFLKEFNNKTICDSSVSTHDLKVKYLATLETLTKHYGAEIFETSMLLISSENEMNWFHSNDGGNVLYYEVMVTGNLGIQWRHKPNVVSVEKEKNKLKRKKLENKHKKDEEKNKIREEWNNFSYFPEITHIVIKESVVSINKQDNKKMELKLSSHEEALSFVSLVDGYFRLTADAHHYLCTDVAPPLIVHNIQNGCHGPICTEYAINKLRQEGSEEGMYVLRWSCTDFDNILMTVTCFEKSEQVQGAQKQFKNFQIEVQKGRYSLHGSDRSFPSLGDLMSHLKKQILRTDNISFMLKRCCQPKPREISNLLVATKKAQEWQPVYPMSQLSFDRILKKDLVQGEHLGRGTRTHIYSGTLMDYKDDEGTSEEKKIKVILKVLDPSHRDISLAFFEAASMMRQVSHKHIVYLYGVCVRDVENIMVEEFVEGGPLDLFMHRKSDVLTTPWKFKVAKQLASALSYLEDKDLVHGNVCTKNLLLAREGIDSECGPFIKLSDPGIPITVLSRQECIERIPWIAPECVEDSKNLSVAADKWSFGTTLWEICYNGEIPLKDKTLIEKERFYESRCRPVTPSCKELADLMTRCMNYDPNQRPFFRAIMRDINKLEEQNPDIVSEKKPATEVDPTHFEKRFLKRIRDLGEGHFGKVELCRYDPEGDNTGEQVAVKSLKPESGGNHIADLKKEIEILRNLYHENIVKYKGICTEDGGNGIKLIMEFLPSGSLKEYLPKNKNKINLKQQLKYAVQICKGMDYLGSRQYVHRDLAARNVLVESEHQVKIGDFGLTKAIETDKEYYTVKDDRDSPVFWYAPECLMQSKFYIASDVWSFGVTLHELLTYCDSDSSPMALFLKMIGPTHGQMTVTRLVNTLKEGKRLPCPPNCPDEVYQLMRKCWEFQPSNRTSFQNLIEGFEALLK
Property label: IC50

{"columns": ["Compound", "Property label", "Value"],
 "data": [
  ["CCOC(=O)c1nc(Cn2ccc3cnc(Nc4cnn(C)c4)nc32)cs1", "IC50", "1 to 10 µM"],
  ["CCOC(=O)Cn1cc(Nc2ncc3ccn(CCC#N)c3n2)cn1", "IC50", "1 to 10 µM"],
  ["CCC(C)OC(=O)Cn1cc(Nc2ncc3ccn(CC(CC)C(C)C)c3n2)cn1 (stereo not drawn)", "IC50", "< 0.1 µM"],
  ["CCC(CC)Cn1ccc2cnc(Nc3cnn(CC(=O)O)c3)nc21", "IC50", "< 0.1 µM"],
  ["CCC(Cn1ccc2cnc(Nc3cnn(C(=O)OC(C)(C)C)c3)nc21)C(C)C (stereo not drawn)", "IC50", "< 0.1 µM"],
  ["CC[C@H](Cn1ccc2cnc(Nc3cnn(C4CC(C)(C)OC4=O)c3)nc21)C(C)C (stereo partly drawn)", "IC50", "< 0.1 µM"],
  ["CC(C)OC(=O)Cn1cc(Nc2ncc3ccn(C[C@@H](CCN(C)C)C(C)C)c3n2)cn1", "IC50", "0.1 to 1 µM"],
  ["CCOC(=O)Cn1ccc(Nc2ncc3ccn(CC(CC)CC)c3n2)n1", "IC50", "1 to 10 µM"],
  ["CCOC(=O)CCn1cc(Nc2ncc3ccn(CC(CC)C(C)C)c3n2)cn1 (stereo not drawn)", "IC50", "< 0.1 µM"],
  ["C=CC(=O)Nc1cccc(Cn2ccc3cnc(Nc4cnn(CC(=O)OCC)c4)nc32)c1", "IC50", "0.1 to 1 µM"],
  ["O=C(O)Cn1cc(Nc2ncc3ccn(CC4CCCCC4)c3n2)cn1", "IC50", "< 0.1 µM"],
  ["CCOC(=O)Cn1cc(Nc2ncc3ccn(CC4CC5CCC4C5)c3n2)cn1 (stereo not drawn)", "IC50", "< 0.1 µM"],
  ["CCC(CC)Cn1ccc2cnc(Nc3cnn(CC(=O)OCCC#N)c3)nc21", "IC50", "< 0.1 µM"],
  ["CCOC(=O)Cn1cc(Nc2ncc3ccn(CC4CCCC(F)(F)C4)c3n2)cn1 (stereo not drawn)", "IC50", "< 0.1 µM"],
  ["CC[C@H](Cn1ccc2cnc(Nc3cnn(CC(=O)OC(C)C)c3)nc21)C(C)C", "IC50", "< 0.1 µM"],
  ["CCC(CC)Cn1ccc2cnc(Nc3cnn(CC(=O)OCCN(C)C)c3)nc21", "IC50", "< 0.1 µM"],
  ["CC[C@H](Cn1ccc2cnc(Nc3cnn(C(CCO)C(=O)O)c3)nc21)C(C)C (stereo partly drawn)", "IC50", "< 0.1 µM"],
  ["CCC(Cn1ccc2cnc(Nc3cnn(CC(=O)OC(C)C)c3)nc21)C(C)C (stereo not drawn)", "IC50", "< 0.1 µM"]
]}

---

Measurement target: JAK3 (Homo sapiens (Human), UniProt P52333)
Sequence (P52333 whole entry, species assumed): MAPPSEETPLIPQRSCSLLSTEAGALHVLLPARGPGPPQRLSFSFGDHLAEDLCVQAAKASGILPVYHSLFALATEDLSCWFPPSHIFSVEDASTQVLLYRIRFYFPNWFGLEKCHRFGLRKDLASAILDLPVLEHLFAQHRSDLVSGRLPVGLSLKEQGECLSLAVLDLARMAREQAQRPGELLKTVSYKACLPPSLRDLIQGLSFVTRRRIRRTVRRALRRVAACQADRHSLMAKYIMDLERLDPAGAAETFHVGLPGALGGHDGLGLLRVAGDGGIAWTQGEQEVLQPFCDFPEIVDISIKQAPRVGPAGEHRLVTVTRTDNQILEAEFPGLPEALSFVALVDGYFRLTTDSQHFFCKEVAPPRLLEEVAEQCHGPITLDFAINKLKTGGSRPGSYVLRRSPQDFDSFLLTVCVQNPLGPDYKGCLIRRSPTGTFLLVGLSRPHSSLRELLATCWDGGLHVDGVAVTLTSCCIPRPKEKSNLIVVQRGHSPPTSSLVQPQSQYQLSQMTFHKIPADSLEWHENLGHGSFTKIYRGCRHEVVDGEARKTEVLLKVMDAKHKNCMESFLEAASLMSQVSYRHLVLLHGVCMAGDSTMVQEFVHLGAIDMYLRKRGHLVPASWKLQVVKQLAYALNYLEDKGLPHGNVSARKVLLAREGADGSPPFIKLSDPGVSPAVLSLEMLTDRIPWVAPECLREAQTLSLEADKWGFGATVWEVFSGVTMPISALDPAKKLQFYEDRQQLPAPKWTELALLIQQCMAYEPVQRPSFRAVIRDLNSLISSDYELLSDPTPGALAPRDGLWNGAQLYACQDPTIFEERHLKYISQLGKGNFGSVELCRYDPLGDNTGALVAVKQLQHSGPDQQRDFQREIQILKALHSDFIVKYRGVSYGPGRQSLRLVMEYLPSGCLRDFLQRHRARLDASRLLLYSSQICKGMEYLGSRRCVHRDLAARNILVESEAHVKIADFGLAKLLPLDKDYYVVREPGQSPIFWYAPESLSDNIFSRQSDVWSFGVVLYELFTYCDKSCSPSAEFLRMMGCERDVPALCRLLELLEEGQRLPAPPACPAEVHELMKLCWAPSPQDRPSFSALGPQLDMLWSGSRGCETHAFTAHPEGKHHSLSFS
pIC50: −log10 of the molar value.

{"columns": ["Compound", "Measurement target", "pIC50"],
 "data": [
  ["CCOC(=O)Cn1cc(Nc2ncc3ccn(CC4CCCC(F)(F)C4)c3n2)cn1 (centres unmarked)", "JAK3 (Homo sapiens (Human), UniProt P52333)", "> 7.00"],
  ["CCOC(=O)Cn1cc(Nc2ncc3ccn(Cc4ccsc4)c3n2)cn1", "JAK3 (Homo sapiens (Human), UniProt P52333)", "> 7.00"],
  ["CCOC(=O)Cn1cc(Nc2ncc3ccn(CC(C)(C)C)c3n2)cn1", "JAK3 (Homo sapiens (Human), UniProt P52333)", "> 7.00"],
  ["CCC[C@H](Cn1ccc2cnc(Nc3cnn(CC(=O)OC(C)C)c3)nc21)C(C)C", "JAK3 (Homo sapiens (Human), UniProt P52333)", "> 7.00"],
  ["CC(C)OC(=O)Cn1cc(Nc2ncc3ccn(C[C@@H](CCN(C)C)C(C)C)c3n2)cn1", "JAK3 (Homo sapiens (Human), UniProt P52333)", "6.00 to 7.00"]
]}

Data credit: patent US11136329B2
